System: TNF-alpha production by PBMC
Test description: TNF-alpha assay, LPS-stimulated PBMC, sandwich ELISA
Type: cell-based, human
Recorded conditions: Table 7; same conditions as example 26; read-out: TNFα IC50
pIC50: −log10 of the molar value.
// 0.0 strictly below 6 in pIC50; 1.0 otherwise

INSERT INTO assay_data (mol_smiles, assigned_class) VALUES
  ('COc1ccc(-c2nc3c(=O)[nH]c(=O)n(C)c3nc2Cl)cc1OC', 0.0),
  ('CCOC(=O)CCCn1c(=O)c2nc(-c3ccccc3)c(Cl)nc2n(C)c1=O', 1.0),
  ('COc1ccc(-c2nc3c(=O)n(C)c(=O)n(C)c3nc2Cl)cc1', 1.0);
